# Cond: 0.1N HCl, 1.0% DMSO, 24-hour incubation at ambient temperature, maximum theoretical 100 μM; first value of the cell
Measured endpoint: pH 2 solubility (μM)

CC(C)(C#Cc1ccc(-c2ccc(Cl)c3c(N(C(=O)NCCO)S(C)(=O)=O)nn(CC(F)(F)F)c23)c([C@H](Cc2cc(F)cc(F)c2)NC(=O)Cn2nc(C(F)(F)F)c3c2C(F)(F)[C@@H]2C[C@H]32)n1)S(C)(=O)=O = 1

a = CN(CCCN)C(=O)N(c1nn(CC(F)(F)F)c2c(-c3ccc(C#CC(C)(C)S(C)(=O)=O)nc3[C@H](Cc3cc(F)cc(F)c3)NC(=O)Cn3nc(C(F)(F)F)c4c3C(F)(F)[C@@H]3C[C@H]43)ccc(Cl)c12)S(C)(=O)=O
b = CN(CCCC(=O)O)C(=O)N(c1nn(CC(F)(F)F)c2c(-c3ccc(C#CC(C)(C)S(C)(=O)=O)nc3[C@H](Cc3cc(F)cc(F)c3)NC(=O)Cn3nc(C(F)(F)F)c4c3C(F)(F)[C@@H]3C[C@H]43)ccc(Cl)c12)S(C)(=O)=O
c = CC(C)(C#Cc1ccc(-c2ccc(Cl)c3c(N(C(=O)OCCOCCOCCO)S(C)(=O)=O)nn(CC(F)(F)F)c23)c([C@H](Cc2cc(F)cc(F)c2)NC(=O)Cn2nc(C(F)(F)F)c3c2C(F)(F)[C@@H]2C[C@H]32)n1)S(C)(=O)=O
## Task Number of compounds to sort: 3. Sort criterion: pH 2 solubility, ascending. Hello, could you send the labels back in the order asked? Thank you.
## Result b, c, a
(b: 1 μM, c: 4 μM, a: 59 μM)
